Parameter: melting point. Scope: all listed entries.
parameterMeasured: melting point

CC(=O)OC(CCc1cc2cccnc2n(-c2cccc([N+](=O)[O-])c2)c1=O)c1ccncc1 (centres unmarked); 69 to 71 °C
CC(=O)Nc1cccc(-n2c(=O)c(CCCc3ccncc3)cc3cccnc32)c1; 200 to 202 °C
O=c1c(CCCc2cccnn2)cc2cccnc2n1-c1cccc([N+](=O)[O-])c1; 234 to 235 °C
CC(CCc1cc2cccnc2n(-c2cccc(N(C)C)c2)c1=O)c1ccncc1 (centres unmarked); 148 to 154 °C
O=c1c(CCCc2cncnc2)cc2cccnc2n1-c1cccc([N+](=O)[O-])c1; 175 to 175.5 °C
O=c1c(CCCc2ccncc2)cc2cccnc2n1-c1cccc2nsnc12; 191 to 192 °C
O=c1c(CCCc2ccncc2)cc2cccnc2n1-c1ccc(Cl)c([N+](=O)[O-])c1; 136 to 137 °C
CN(C)c1cccc(-n2c(=O)c(CCCc3ccncc3)cc3cccnc32)c1; 124 to 127 °C
